experimental-system: human CAIX antigen (purchased from AcroBiosystems) (human, UniProt Q16790 38-414)
measurement-notes: BLI (ForteBio), antibody on AHQ sensor, 100 nM antigen, 1:1 model
pKd: −log10 of the molar value.

[
  {
    "binder": "H-YE-25 (Fc fusion, also called CAIX nanobody H-YE-25; not shown: human IgG1 Fc segment) QVQLQESGGGLVQPGGSLRLSCAASGNSVNIFRFAAMAWYRQAPGKQRELVAVITTTGGTKYSDSVKGRFTISRDSAKNTVLLQMNSLKPEDTAVYYCNADYLQDYWGQGTQVTVSS",
    "pKd": 8.92
  },
  {
    "binder": "H-YE-03 (Fc fusion, also called CAIX nanobody H-YE-03; not shown: human IgG1 Fc segment) QVQLQESGGGLVQPGGSLRLSCTASTSSFNFQTMGWYRQAPGKQRELVATITSRAITNYADSVKGRFTISRDNAAKTVSLQMNSLKPEDTAVYYCNAAWIGDYWGQGTQVTVSA",
    "pKd": 8.94
  },
  {
    "binder": "H-YE-40 (Fc fusion, also called CAIX nanobody H-YE-40; not shown: human IgG1 Fc segment) QVQLQESGGGLVQAGGSLRLSCAASGRTFSSYAMGWFRQAPGKEREFVATISWNGGSTYYADSVKGRFTISRDNAKNTVYLQMNSLKPEDTAVYYCAAEHDLGELAGTGYDYWGQGTQVTVSS",
    "pKd": 8.60
  },
  {
    "binder": "H-YE-23 (Fc fusion, also called CAIX nanobody H-YE-23; WYE-23; not shown: human IgG1 Fc segment) QVQLQESGGGLVQPGGSLRLSCAASGNSANIFSFASVAWYRQAPGKQRELVAVITSAGGTKYSDSVKGRFTISRDNAKNTILLQMNSLKPEDTAVYYCNVDYLQDYWGQGTQVTVSS",
    "pKd": 9.66
  }
]
